Hi there, I'd appreciate the recorded pIC50 for every entry that follows.
target_or_test_system: KRAS WT (Homo sapiens, UniProt P01116+P62937)
Sequence (P01116 1-169 isoform P01116-2 limits assumed): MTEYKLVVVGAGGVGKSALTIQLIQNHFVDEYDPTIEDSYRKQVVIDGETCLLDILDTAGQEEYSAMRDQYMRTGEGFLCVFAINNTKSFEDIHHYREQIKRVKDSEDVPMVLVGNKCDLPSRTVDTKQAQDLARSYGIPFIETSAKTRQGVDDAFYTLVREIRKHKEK
Sequence (P62937 whole entry): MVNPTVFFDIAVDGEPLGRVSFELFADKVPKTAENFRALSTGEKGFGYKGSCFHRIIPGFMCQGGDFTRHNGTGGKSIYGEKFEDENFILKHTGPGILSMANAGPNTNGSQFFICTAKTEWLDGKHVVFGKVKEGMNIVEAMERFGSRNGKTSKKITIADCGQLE
procedure_summary: Disruption of BRAF RBD interaction with Ras (FRET / MOA assay, with Cyclophilin A)
Assay type: biochemical
condition_set: KRAS WT; read-out: KRAS WT FRET data IC50
pIC50: −log10 of the molar value.

The recorded pIC50 for CCn1c(-c2cccnc2[C@H](C)OC)c2c3cc(ccc31)-c1csc(n1)C[C@H](NC(=O)[C@H](C(C)C)N(C)C(=O)N1CC(C#N)C1)C(=O)N1CCC[C@H](N1)C(=O)OCC(C)(C)C2 (atropisomer, axis not shown) [Example A382] is 6.00 to 7.00

// sample CCn1c(-c2cccnc2[C@H](C)OC)c2c3cc(ccc31)-c1csc(n1)C[C@H](NC(=O)[C@H](C(C)C)N(C)C(=O)N(C)CC(C)C)C(=O)N1CCC[C@H](N1)C(=O)OCC(C)(C)C2 [Example A332] , its pIC50 was 6.00 to 7.00

// sample CCn1c(-c2cccnc2[C@H](C)OC)c2c3cc(ccc31)-c1cc(O)cc(c1)C[C@H](NC(=O)[C@H](C(C)C)N(C)C(=O)[C@H]1CCN[C@H]1C)C(=O)N1CCC[C@H](N1)C(=O)OCC(C)(C)C2 [Example A127] , its pIC50 was 7.00 to 8.00

Query CCn1c(-c2cccnc2[C@H](C)OC)c2c3cc(ccc31)-c1csc(n1)C[C@H](NC(=O)[C@H](C(C)C)N(C)C(=O)N1C[C@H]3OCCN(C)[C@H]3C1)C(=O)N1CCC[C@H](N1)C(=O)OCC(C)(C)C2 (atropisomer, axis not shown) [Example A451] yields pIC50 of 6.00 to 7.00

Lab note: measured pIC50 of CCN(C(=O)N(C)[C@H](C(=O)N[C@H]1Cc2nc(cs2)-c2ccc3c(c2)c(c(-c2cccnc2[C@H](C)OC)n3CC)CC(C)(C)COC(=O)[C@@H]2CCCN(N2)C1=O)C(C)C)C1CC1 [Example A352] was 6.00 to 7.00

Noted for CCn1c(-c2cccnc2[C@H](C)OC)c2c3cc(ccc31)-c1csc(n1)C[C@H](NC(=O)[C@H](C(C)C)N(C)C(=O)N(C)C1CC1)C(=O)N1CCC[C@H](N1)C(=O)OCC(C)(C)C2 [Example A353] : its pIC50 reads 6.00 to 7.00

Consider CCn1c(-c2cccnc2[C@H](C)OC)c2c3cc(ccc31)-c1csc(n1)C[C@H](NC(=O)[C@H](C(C)C)N(C)C(=O)N1CC3(CC(N(C)CCO)C3)C1)C(=O)N1CCC[C@H](N1)C(=O)OCC(C)(C)C2 (atropisomer, axis not shown) [Example A467] . Its measured pIC50 is 6.00 to 7.00

Form field pIC50, entry CCn1c(-c2cccnc2[C@H](C)OC)c2c3cc(ccc31)-c1csc(n1)C[C@H](NC(=O)[C@H](C(C)C)N(C)C(=O)N1CC(N(C)C3CC3)C1)C(=O)N1CCC[C@H](N1)C(=O)OCC(C)(C)C2 (atropisomer, axis not shown) [Example A285] : 6.00 to 7.00

Record C=CC(=O)N1CCC(C(=O)N(C)[C@H](C(=O)N[C@H]2Cc3cc(O)cc(c3)-c3ccc4c(c3)c(c(-c3ccccc3CCOC)n4CC)CC(C)(C)COC(=O)[C@@H]3CCCN(N3)C2=O)C(C)C)CC1 [Example A014] , field pIC50: 5.00 to 6.00

Short answer for CCn1c(-c2cccnc2[C@H](C)OC)c2c3cc(ccc31)-c1csc(n1)C[C@H](NC(=O)[C@H](C(C)C)N(C)C(=O)N1CC[C@@]3(CCN(C)C3=O)C1)C(=O)N1CCC[C@H](N1)C(=O)OCC(C)(C)C2 (single isomer, unassigned) [Example A495] : pIC50 was 6.00 to 7.00
